# GI50 values compiled below
# Tested on: SN12C renal
# ASSAY PROTOCOL: NCI tumour cell line growth inhibition, 48 h

- MOLECULE: "FC(F)(F)c1cc(Nc2ccc3c(OCCCN4CCOCC4)cccc3n2)ccc1Cl"
  GI50: "3.35 µM"
- MOLECULE: "COc1ccc(-c2nc(-c3nc4ccc(F)cc4[nH]3)cc3c2[nH]c2ccccc23)cc1"
  GI50: "2.97 µM"
- MOLECULE: "O=C(c1ccccc1)c1ccc(-c2ccc(O)cc2)cc1"
  GI50: "20.2 µM"
- MOLECULE: "O=C1Nc2ccc(Cl)cc2/C1=C\\c1c(-c2ccc(F)cc2)nc2ccccn12"
  GI50: "2.88 µM"
- MOLECULE: "ClCCN(CCCl)Cc1ccc(Nc2ccnc3cc(Cl)ccc23)cc1"
  GI50: "0.48 µM"
- MOLECULE: "COc1ccc2c(c1)Oc1nc(N)c(C#N)c(N)c1C2Sc1ccc(SC)cc1 (stereo not given)"
  GI50: "1.64 µM"
- MOLECULE: "COc1ccc(-c2cc3c4c(nc5ccccc5c4c2)CC(c2cc(OC)c(OC)c(OC)c2)O3)cc1 (stereo not given)"
  GI50: "2.75 µM"
- MOLECULE: "CCOc1ccc(NC(=O)Nc2cc(C(C)C)ccc2C)cc1"
  GI50: "5.15 µM"
- MOLECULE: "CS(=O)(=O)c1nccc(-c2c(-c3cccc(OCc4ccc(F)cc4)c3)nc3sccn23)n1"
  GI50: "> 56.6 µM"

Please look at the following molecule next.
stdin: # input molecule: O=C1C=C(SCCO)C(=O)c2ccccc21 ; wanted: its GI50
stdout: 1.58 µM

====

# System: SF-539 CNS
# ASSAY PROTOCOL: NCI tumour cell line growth inhibition, 48 h
ENDPOINT LABEL: TGI (µM)
Please give a number only; it is taken to be in µM.

- SMILES RECORD: "O=C(CC12CC3CC(CC(C3)C1)C2)NCCOCCOCCNC(=O)c1cc2c(o1)C(=O)c1ccccc1C2=O"
  TGI [µM]: 2.37

Please look at the following compound next.
stdin: # input compound: O=[N+]([O-])/C(C(Cl)=C(Cl)Cl)=C1\Nc2ccccc2O1 ; wanted: its TGI
stdout: 38.6

====

# TGI values compiled below
# System: HCC-2998 colon
# ASSAY PROTOCOL: NCI tumour cell line growth inhibition, 48 h
Please give a number only; it is taken to be in µM.

Solved entries:
- MOLECULE: "CC1=CC[C@@H]2[C@@H](CC[C@@]2(C)O)C(C)(C)[C@H]1CC[C@@H]1[C@@]2(C)CCC(=O)C(C)(C)O[C@@H]2CC[C@]1(C)O"
  SYSTEM NAME: "HCC-2998 colon"
  UNIT OF MEASUREMENT: "µM"
  NUMERIC VALUE: 40.9
- MOLECULE: "CCCOC(=O)N[C@H]1CCc2c(Br)c(OC)c(OC)c(OC)c2-c2ccc(SC)c(=O)cc21"
  SYSTEM NAME: "HCC-2998 colon"
  UNIT OF MEASUREMENT: "µM"
  NUMERIC VALUE: 4.26
- MOLECULE: "COC1/C=C\\C=C(/C)C(=O)NC2=CC(=O)C(NCCCl)=C(CC(C)CC(OC)C(O)C(C)/C=C(/C)C1OC(N)=O)C2=O (stereo unspecified)"
  SYSTEM NAME: "HCC-2998 colon"
  UNIT OF MEASUREMENT: "µM"
  NUMERIC VALUE: 1

Please look at the following molecule next.
stdin: Param readout= TGI; system= HCC-2998 colon; entry= CC1(C)CCC(S(=O)(=O)c2ccc3c(c2)/C(=N\O)c2cc(S(=O)(=O)N4CCC(O)(c5cccc(C(F)(F)F)c5)CC4)ccc2-3)CC1 ; returns value.
stdout: 0.0545

====

# Tested on: A549 NSCLC
# ASSAY PROTOCOL: NCI tumour cell line growth inhibition, 48 h
# TGI values compiled below

- MOLECULE: "OCC(O)CC[CH2][Sn]([c]1ccccc1)([c]1ccccc1)[c]1ccccc1 (stereo not given)"
  TGI: "22.6 µM"
- MOLECULE: "Cc1ccc(OP2(=O)Oc3ccc4ccccc4c3CN2c2ccc(Cl)cc2)cc1C (stereo not given)"
  TGI: "> 100 µM"
- MOLECULE: "CC1C(c2ccc(N(C)C)cc2)c2cc3c(cc2OC1N1CCCC1)OCO3 (stereo not given)"
  TGI: "> 100 µM"
- MOLECULE: "Cc1ccc(N=Nc2c(O)c3ccccc3[nH]c2=O)c(S(=O)(=O)N(C)C)c1"
  TGI: "> 100 µM"

Please look at the following molecule next.
stdin: # input molecule: CCOc1ncn(-c2ccc(NC(=S)Nc3cccc(O)c3)cc2)n1 ; wanted: its TGI
stdout: > 100 µM

====

# TGI values compiled below
# System: A549 NSCLC
# ASSAY PROTOCOL: NCI tumour cell line growth inhibition, 48 h

- SMILES RECORD: "CCOc1ccc(NC(=O)Nc2cc(C(C)C)ccc2C)cc1"
  TGI: "17.6 µM"
- SMILES RECORD: "Cc1ccc(-c2cc(-c3ccco3)nc(N)n2)o1"
  TGI: "> 100 µM"
- SMILES RECORD: "O=S(=O)(O)c1cc(Cl)c(O)c2ncc(Cl)cc12"
  TGI: "> 100 µM"
- SMILES RECORD: "O=C(CC12CC3CC(CC(C3)C1)C2)NCCOCCOCCNC(=O)c1cc2c(o1)C(=O)c1ccccc1C2=O"
  TGI: "0.51 µM"

stdin: # input compound: O=CC1=CCCC2(C1)OCCO2 ; wanted: its TGI
stdout: > 100 µM

stdin: # input compound: Cc1ccc(S(=O)(=O)N(C)C)cc1[N+](=O)[O-] ; wanted: its TGI
stdout: > 100 µM

stdin: # input compound: CCCOC(=O)N[C@H]1CCc2c(Br)c(OC)c(OC)c(OC)c2-c2ccc(SC)c(=O)cc21 ; wanted: its TGI
stdout: > 68.4 µM

stdin: # input compound: O=C(NCc1cn(Cc2cccc(Oc3ccccc3)c2)nn1)c1cccnc1Nc1ccccc1 ; wanted: its TGI
stdout: 95.2 µM

stdin: # input compound: COc1ccc(-c2nc(-c3nc4ccc(F)cc4[nH]3)cc3c2[nH]c2ccccc23)cc1 ; wanted: its TGI
stdout: 7.5 µM

stdin: # input compound: COc1ccc2c(c1O)-c1c(OC)c(OC)cc3c1[C@H](C2)[N+](C)(C)CC3 ; wanted: its TGI
stdout: > 100 µM

====

# Tested on: KM12 colon
# ASSAY PROTOCOL: NCI tumour cell line growth inhibition, 48 h
ENDPOINT LABEL: TGI (µM)
Please give a number only; it is taken to be in µM.

- COMPOUND: "O=C(C=P(c1ccccc1)(c1ccccc1)c1ccccc1)C12CC3CC(CC(C3)C1)C2"
  ENDPOINT LABEL: "TGI"
  NUMERIC VALUE: 32
- COMPOUND: "COc1ccc2c(c1)Oc1nc(N)c(C#N)c(N)c1C2Sc1ccc(SC)cc1 (stereo unspecified)"
  ENDPOINT LABEL: "TGI"
  NUMERIC VALUE: 3.49
- COMPOUND: "CCN(CC)c1ccc(NC(C(=O)c2ccccc2)c2ccccc2)cc1 (stereo unspecified)"
  ENDPOINT LABEL: "TGI"
  NUMERIC VALUE: 15.7
- COMPOUND: "CCCOC(=O)N[C@H]1CCc2c(Br)c(OC)c(OC)c(OC)c2-c2ccc(SC)c(=O)cc21"
  ENDPOINT LABEL: "TGI"
  NUMERIC VALUE: 7.92
- COMPOUND: "CN(C)CC1CCC/C(=C\\c2ccc(N(C)C)cc2)C1=O (stereo unspecified)"
  ENDPOINT LABEL: "TGI"
  NUMERIC VALUE: 2.93

stdin: # input compound: CC1(C)CCC(S(=O)(=O)c2ccc3c(c2)/C(=N\O)c2cc(S(=O)(=O)N4CCC(O)(c5cccc(C(F)(F)F)c5)CC4)ccc2-3)CC1 ; wanted: its TGI
stdout: 0.0503

stdin: # input compound: O=C(CCN1CCCCC1CCO)Nc1ccc2c(c1)C(=O)c1ccc(NC(=O)CCN3CCCCC3CCO)cc1C2=O (stereo unspecified) ; wanted: its TGI
stdout: 9.87

====

# System: SN12C renal
# ASSAY PROTOCOL: NCI tumour cell line growth inhibition, 48 h
# GI50 values compiled below

stdin: # input molecule: Cc1ccc(S(=O)(=O)N(C)C)cc1[N+](=O)[O-] ; wanted: its GI50
stdout: > 100 µM

stdin: # input molecule: COc1cc(-c2c3c(cn2S(=O)(=O)c2ccccc2)-c2nc(N)sc2CC3)cc(OC)c1OC ; wanted: its GI50
stdout: 4.45 µM

stdin: # input molecule: CC(=O)[CH-]C(=O)c1ccccc1.CC(=O)[CH-]C(=O)c1ccccc1.[Nd+3].[OH-].[OH3+] ; wanted: its GI50
stdout: > 100 µM

stdin: # input molecule: COc1ccc(C2C3=C(NC(=O)C2C#N)c2ccc4ccccc4c2OCC3)cc1 (stereo not given) ; wanted: its GI50
stdout: 23.9 µM

stdin: # input molecule: COc1ccc2c(c1)O/C(=C\c1cccc(OCC(=O)Nc3nc4ccccc4s3)c1)C2=O ; wanted: its GI50
stdout: 2.82 µM
